Test system: Mus musculus
ASSAY_PROCEDURE: Effective dose in mice by pentylenetetrazole assay (administered subcutaneously)
Type: functional
EXPERIMENTAL_PARAMETERS: sc
ASSAY_ENDPOINT: ED50

Use the examples below as a reference point.
> print(dat)
                                   molecule    obs.value
1                O=C(Cn1ccnc1)c1cc2ccccc2s1  > 400 mg/kg
2  CC1COC(Cn2ccnc2)(c2ccc3c(c2)Cc2ccccc2-3)O1 (stereo unspecified)  > 200 mg/kg
3  CCc1ccc2c(c1)Cc1cc(C(=O)Cn3ccnc3)ccc1-2.Cl  > 400 mg/kg
4  c1ccc2c(c1)Cc1cc(C3(Cn4ccnc4)SCCS3)ccc1-2  > 400 mg/kg
5      O=C(Cn1ccnc1)c1ccc2c(c1)-c1ccccc1CC2  > 400 mg/kg

Turning to the following molecule.
INPUT: Name the reported ED50 value associated with the molecule O=C(OC(Cn1ccnc1)c1ccc2c(c1)Cc1ccccc1-2)c1ccccc1 (stereo unspecified)
OUTPUT: > 400 mg/kg

====

TARGET_OR_TEST_SYSTEM: GABA-A receptor; anion channel (Rattus norvegicus) (UniProt O09028+P15431+P18506+P18508+P19969+P20236+P23574+P23576+P28471+P28473+P30191+P62813+P63079+P63138+Q91ZM7+Q9ES14)
ASSAY_PROCEDURE: In vivo displacement of [3H]flunitrazepam binding to rat cortical membranes after 20 mg/kg ip dose
Assay type: organism-based
Design: dose 20 mg/kg
EXPERIMENTAL_PARAMETERS: Membrane, at 20 mg/kg
Answer each item with its documented Control.
Answers are plain numbers, in %.

Some molecules with known Control results, for comparison:
> print(dat)
                                   molecule  assay.endpoint  unit.abbrev  obs.value
1         O=C(Cn1ccnc1)c1ccc2ccc3ccccc3c2c1         Control            %        121
2  O=C(Cn1ccnc1)c1ccc2ccccc2c1 [NAFIMIDONE]         Control            %        116
3                O=C(Cn1ccnc1)c1cc2ccccc2o1         Control            %        142

INPUT: Report Control for `O=C(Cn1ccnc1)c1ccc2c(ccc3ccccc32)c1` please.
OUTPUT: 128

====

ASSAY_PROCEDURE: Compound was tested for its toxicity in rat
Type: organism-based
EXPERIMENTAL_PARAMETERS: in vivo
ASSAY_ENDPOINT: LD50 (mg/kg)
Numbers only, in mg/kg.

INPUT: // LD50 lookup, key: `O=C(Cn1ccnc1)c1ccc2c(c1)Cc1ccccc1-2`
OUTPUT: 504

====

System: Mus musculus
ASSAY_PROCEDURE: Effective dose in mice by horizontal screen assay (administered orally)
Type: functional
EXPERIMENTAL_PARAMETERS: po
ASSAY_ENDPOINT: ED50

Worked set:
> print(dat)
                            compound  assay.endpoint    obs.value
1  O=C(Cn1ccnc1)c1ccc2ccc3ccccc3c2c1            ED50  > 400 mg/kg
2  O=C(Cn1ccnc1)c1cccc2c1Cc1ccccc1-2            ED50  > 100 mg/kg
3         O=C(Cn1ccnc1)c1cc2ccccc2s1            ED50  > 400 mg/kg

Look up ED50 for the entries below, preserving their order.
1. c1ccc2c(c1)Cc1cc(C3(Cn4ccnc4)OCCCO3)ccc1-2
2. O=C(Cn1ccnc1)c1ccc2c(ccc3ccccc32)c1
3. O=C(CCn1ccnc1)c1ccc2c(c1)Cc1ccccc1-2
4. CC(C(=O)c1ccc2c(c1)Cc1ccccc1-2)n1ccnc1 (centres undefined)
5. Cc1cn(CC(=O)c2ccc3c(c2)Cc2ccccc2-3)cn1

OUTPUT:
> 400 mg/kg
> 400 mg/kg
> 200 mg/kg
> 400 mg/kg
> 400 mg/kg

====

Test system: Mus musculus
ASSAY_PROCEDURE: Effective dose in mice by pentylenetetrazole assay (administered subcutaneously)
Format: functional
EXPERIMENTAL_PARAMETERS: sc
ASSAY_ENDPOINT: ED50

Past entries and their recorded results:
> print(dat)
                               compound    obs.value
1     O=C(Cn1ccnc1)c1cccc2c1-c1ccccc1C2    400 mg/kg
2             c1ccc2cc(CCn3ccnc3)ccc2c1  > 200 mg/kg
3  O=C(CCn1ccnc1)c1ccc2c(c1)Cc1ccccc1-2  > 100 mg/kg

For every item in the list below, what is its measured ED50?
1. c1ccc2c(c1)Cc1cc(CCn3ccnc3)ccc1-2
2. CCC(C(=O)c1ccc2c(c1)Cc1ccccc1-2)n1ccnc1 (stereo not given)
3. CCc1nccn1CC(=O)c1ccc2c(c1)Cc1ccccc1-2
4. O=C(Cn1ccnc1)c1csc2ccccc12
5. O=C(Cn1ccnc1)c1ccc2ccccc2c1
6. CC1(C)c2ccccc2-c2ccc(C(=O)Cn3ccnc3)cc21
7. O=C(Cn1ccnc1)c1ccc2c(c1)Cc1ccccc1-2

OUTPUT:
1. > 200 mg/kg
2. > 400 mg/kg
3. > 400 mg/kg
4. > 400 mg/kg
5. > 400 mg/kg
6. > 400 mg/kg
7. > 200 mg/kg

====

Species on record: Mus musculus
ASSAY_PROCEDURE: Compound was tested for time to peak anticonvulsant effect (TPE)
Format: functional
Task for the reader: assign each of the following compounds its reported TPE.
One number for each entry, in h.

These solved cases illustrate the format of a correct answer.
> print(dat)
                               compound  assay.endpoint  unit.abbrev  obs.value
1  Cc1nccn1CC(=O)c1ccc2c(c1)Cc1ccccc1-2             TPE            h          1
2          c1ccc2cc(CCc3ncc[nH]3)ccc2c1             TPE            h          1

INPUT: Consider the compound shown here: OC(Cn1ccnc1)c1ccc2c(c1)Cc1ccccc1-2 (stereo not drawn) What is its recorded TPE?
OUTPUT: 1

====

Exercise: for every item that follows, state its recorded TPE.
Organism: Mus musculus
ASSAY_PROCEDURE: Compound was tested for time to peak anticonvulsant effect (TPE)
Assay type: functional

Example cases with answers are listed next.
> print(dat)
                                   molecule  assay.endpoint  obs.value
1                O=C(Cn1ccnc1)c1cc2ccccc2s1             TPE        1 h
2  OC(CCn1ccnc1)c1ccc2c(c1)Cc1ccccc1-2 (stereo not given)             TPE        1 h
3      O=C(CCn1ccnc1)c1ccc2c(c1)Cc1ccccc1-2             TPE        1 h
4   CC1(C)c2ccccc2-c2ccc(C(=O)Cn3ccnc3)cc21             TPE        1 h
5                O=C(Cn1ccnc1)c1csc2ccccc12             TPE        1 h
6  CC(O)(Cn1ccnc1)c1ccc2c(c1)Cc1ccccc1-2 (stereo not given)             TPE        2 h
7         c1ccc2c(c1)Cc1cc(CCn3ccnc3)ccc1-2             TPE        2 h
8      O=C(Cn1ccnc1)c1ccc2c(c1)CCc1ccccc1-2             TPE        2 h
9  OC(Cn1ccnc1)c1ccc(CCc2ccccc2)cc1 (stereo not given)             TPE        1 h

Please examine the following record next.
INPUT: So what does the record say about TPE for `O=C(Cn1ccnc1)c1cccc2c1-c1ccccc1C2` ?
OUTPUT: 1 h

====

Tested on: Mus musculus
ASSAY_PROCEDURE: Effective dose in mice by horizontal screen assay (administered orally)
Assay type: functional
EXPERIMENTAL_PARAMETERS: po
ASSAY_ENDPOINT: ED50

Record excerpt, results attached:
> print(dat)
                                   molecule  assay.endpoint    obs.value
1     CCc1nccn1CC(=O)c1ccc2c(c1)Cc1ccccc1-2            ED50  > 400 mg/kg
2  CC1COC(Cn2ccnc2)(c2ccc3c(c2)Cc2ccccc2-3)O1 (stereo unspecified)            ED50  > 400 mg/kg

Hi! Can you tell me ED50 for each of these molecules?
1. c1ccc2c(c1)Cc1cc(C3(Cn4ccnc4)SCCS3)ccc1-2
2. OC(CCn1ccnc1)c1ccc2c(c1)Cc1ccccc1-2 (stereo unspecified)

OUTPUT:
["> 400 mg/kg", "> 400 mg/kg"]

Give me ED50 for each of these molecules, listed below.
1. Cc1nccn1CC(=O)c1ccc2c(c1)Cc1ccccc1-2
2. c1ccc2c(c1)Cc1cc(CCn3ccnc3)ccc1-2
3. c1ccc2cc(CCn3ccnc3)ccc2c1
4. O=C(Cn1ccnc1)c1cccc2c1-c1ccccc1C2
5. O=C(Cn1ccnc1)c1ccc2c(c1)Cc1ccccc1-2
6. c1ccc2c(c1)Cc1cc(C3(Cn4ccnc4)OCCO3)ccc1-2
7. CC1(C)c2ccccc2-c2ccc(C(=O)Cn3ccnc3)cc21

OUTPUT:
1: > 400 mg/kg; 2: > 100 mg/kg; 3: > 200 mg/kg; 4: > 400 mg/kg; 5: > 1000 mg/kg; 6: > 100 mg/kg; 7: > 400 mg/kg

Origin of the recorded values: ChEMBL document CHEMBL1123481
